- measured.target: hMAO-B (Homo sapiens)
- Construct: purchased Sigma-Aldrich (Steinheim, Germany)
- Sequence (P27338 1-520): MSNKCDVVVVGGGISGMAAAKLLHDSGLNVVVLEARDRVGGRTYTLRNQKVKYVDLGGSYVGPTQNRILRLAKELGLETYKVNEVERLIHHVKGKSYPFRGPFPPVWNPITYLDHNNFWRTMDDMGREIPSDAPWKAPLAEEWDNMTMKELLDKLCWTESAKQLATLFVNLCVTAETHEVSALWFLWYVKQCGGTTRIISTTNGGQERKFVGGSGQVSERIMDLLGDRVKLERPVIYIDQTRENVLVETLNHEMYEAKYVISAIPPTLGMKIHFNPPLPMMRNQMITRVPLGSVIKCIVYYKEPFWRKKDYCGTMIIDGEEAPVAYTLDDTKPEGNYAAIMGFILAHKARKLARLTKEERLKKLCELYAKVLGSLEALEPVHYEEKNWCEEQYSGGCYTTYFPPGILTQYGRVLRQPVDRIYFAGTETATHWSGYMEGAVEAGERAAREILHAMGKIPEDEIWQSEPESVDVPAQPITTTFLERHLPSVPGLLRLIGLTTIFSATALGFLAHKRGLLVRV
- assay.name: biochemical
- measurement.conditions: 10^−4 M; read-out: MAO-B % Inhibition
Label FALSE if inhibition at 100 µM falls below 40%; label TRUE in every other case.

# smiles.entry, qualitative.label
measured = [
    ("Cc1ccc(-c2csc(NN=Cc3ccc(N4CCN(c5ccc(F)cc5)CC4)cc3)n2)cc1", "TRUE"),
    ("Fc1ccc(N2CCN(c3ccc(C=NNc4nc(-c5ccccc5)cs4)cc3)CC2)cc1", "TRUE"),
    ("Fc1ccc(N2CCN(c3ccc(C=NNc4nc(-c5ccc(Cl)cc5)cs4)cc3)CC2)cc1", "TRUE"),
    ("Fc1ccc(N2CCN(c3ccc(C=NNc4nc(-c5ccc(Cl)cc5Cl)cs4)cc3)CC2)cc1", "FALSE"),
]

Continue with the compound presented below.
Test whether the compound N#Cc1ccc(-c2csc(NN=Cc3ccc(N4CCN(c5ccc(F)cc5)CC4)cc3)n2)cc1 records inhibition at 100 µM of 40% or higher. TRUE

###

- measured.target: hMAO-A (Homo sapiens)
- Construct: purchased Sigma-Aldrich (Steinheim, Germany)
- Sequence (P21397 1-527): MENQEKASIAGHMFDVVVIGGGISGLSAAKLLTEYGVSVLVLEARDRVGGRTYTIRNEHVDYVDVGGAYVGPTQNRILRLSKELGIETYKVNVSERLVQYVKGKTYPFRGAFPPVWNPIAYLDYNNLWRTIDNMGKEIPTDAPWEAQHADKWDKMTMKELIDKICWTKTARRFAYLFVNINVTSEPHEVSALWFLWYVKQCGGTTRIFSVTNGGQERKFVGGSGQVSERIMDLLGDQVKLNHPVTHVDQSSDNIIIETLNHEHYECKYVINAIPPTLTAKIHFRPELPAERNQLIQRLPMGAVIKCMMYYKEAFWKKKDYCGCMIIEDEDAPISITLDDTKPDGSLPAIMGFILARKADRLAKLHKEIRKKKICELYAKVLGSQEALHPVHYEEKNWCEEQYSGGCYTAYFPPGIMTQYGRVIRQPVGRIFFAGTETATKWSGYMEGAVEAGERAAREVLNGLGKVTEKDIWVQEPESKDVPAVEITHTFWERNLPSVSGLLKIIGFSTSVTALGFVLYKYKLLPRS
- assay.name: Monoamine oxidase fluorometric inhibition assay, MAO-A
- Format: biochemical
- measurement.conditions: 10^−3 M
So I've got a bunch of compounds here, and I need their inhibition at 1000 µM values.
Give bare numbers, in %.

Each compound below has a reported value. Please supply its inhibition at 1000 µM.
1. COc1ccc(-c2csc(NN=Cc3ccc(N4CCN(c5ccc(F)cc5)CC4)cc3)n2)cc1
2. Fc1ccc(N2CCN(c3ccc(C=NNc4nc(-c5ccc(Cl)cc5)cs4)cc3)CC2)cc1
3. O=[N+]([O-])c1ccc(-c2csc(NN=Cc3ccc(N4CCN(c5ccc(F)cc5)CC4)cc3)n2)cc1
4. Cc1ccc(-c2csc(NN=Cc3ccc(N4CCN(c5ccc(F)cc5)CC4)cc3)n2)c(C)c1
5. N#Cc1ccc(-c2csc(NN=Cc3ccc(N4CCN(c5ccc(F)cc5)CC4)cc3)n2)cc1

[38.6, 48.2, 51, 48.2, 47.2]

I would be grateful if you could provide inhibition at 1000 µM for each of the following entries.
1. Fc1ccc(N2CCN(c3ccc(C=NNc4nc(-c5ccc(Cl)cc5Cl)cs4)cc3)CC2)cc1
2. O=C(NCCN1CCOCC1)c1ccc(Cl)cc1 [Moclobemide, reference compound]
3. Fc1ccc(-c2csc(NN=Cc3ccc(N4CCN(c5ccc(F)cc5)CC4)cc3)n2)cc1

[35.2, 91.2, 30.1]
